Target: T1, sIL-4Rα (soluble IL-4Rα) antigen protein (human, UniProt P24394 26-232)
T1 construct: The ELISA and Octet assays used the bought protein (Sinobio 10402-H08H); also called CD124; sinobio 10402-H08H
Experiment: BLI (Octet QKe), antibody on AHC sensor, sIL-4Rα in solution, 1:1 model
Record form. Attribute: kon. Fill in for each entry.
Report the figure in M⁻¹ s⁻¹ without appending any unit label.

So, 4R.N6 (antibody, V domains shown, Converted from scFab to IgG1 and expressed in HEK293F) VH: EVQLLESGGGLVQPGGSLRLSCAASGFTFSRHAMAWVRQAPGKGLEWVSAITMSGRSIYYADSVKGRFTISRDNSKNTLYLQMNSLRAEDTAVYYCARVHRAFDYWGQGTLVTVSS VL: QSVLTQPPSASGTPGQRVTISCSGSPLFPDSGSFNWYQQLPGTAPKLLIYADSHRPSGVPDRFSGSKSGTSASLAISGLRSEDEADYYCGTWDYSLNSYVLGGGTKLTVLG ? Its kon was 1.79e+06

So, 4R.N5 (antibody, V domains shown, Converted from scFab to IgG1 and expressed in HEK293F) VH: EVQLLESGGGLVQPGGSLRLSCAASGFTFSRHAMAWVRQAPGKGLEWVSAITASGMSIYYADFAKGRFTISRDNSKNTLYLQMNSLRAEDTAVYYCARVHRAFDYWGQGTLVTVSS VL: QSVLTQPPSASGTPGQRVTISCSGSPLFPDSGSFNWYQQLPGTAPKLLIYADSHRPSGVPDRFSGSKSGTSASLAISGLRSEDEADYYCGTWDYSLNRYVLGGGTKLTVLG ? Its kon was 1.6e+06

So, 4R.N3 (antibody, V domains shown, Converted from scFab to IgG1 and expressed in HEK293F) VH: EVQLLESGGGLVQPGGSLRLSCAASGFTFSRHAMAWVRQAPGKGLEWVSAITMSGRSIYYADSVKGRFTISRDNSKNTLYLQMNSLRAEDTAVYYCARVHRAFDYWGQGTLVTVSS VL: QSVLTQPPSASGTPGQRVTISCSGSPLFPDSGSFNWYQQLPGTAPKLLIYADSHRPSGVPDRFSGSKSGTSASLAISGLRSEDEADYYCGTWDYSLNRYVLGGGTKLTVLG ? Its kon was 2.02e+06

So, 4R.N4 (antibody, V domains shown, Converted from scFab to IgG1 and expressed in HEK293F) VH: EVQLLESGGGLVQPGGSLRLSCAASGFTFSRHAMAWVRQAPGKGLEWVSAITMSGRGIYYADSVKGRFTISRDNSKNTLYLQMNSLRAEDTAVYYCARVHRAFDYWGQGTLVTVSS VL: QSVLTQPPSASGTPGQRVTISCSGSPLFPDSGSFNWYQQLPGTAPKLLIYADSHRPSGVPDRFSGSKSGTSASLAISGLRSEDEADYYCGTWDYSLSAYVLGGGTKLTVLG ? Its kon was 1.63e+06
